Biological target: human ether-à-go-go-related gene (hERG) potassium channel (human, UniProt Q12809)
Sequence (Q12809 whole entry, looked up): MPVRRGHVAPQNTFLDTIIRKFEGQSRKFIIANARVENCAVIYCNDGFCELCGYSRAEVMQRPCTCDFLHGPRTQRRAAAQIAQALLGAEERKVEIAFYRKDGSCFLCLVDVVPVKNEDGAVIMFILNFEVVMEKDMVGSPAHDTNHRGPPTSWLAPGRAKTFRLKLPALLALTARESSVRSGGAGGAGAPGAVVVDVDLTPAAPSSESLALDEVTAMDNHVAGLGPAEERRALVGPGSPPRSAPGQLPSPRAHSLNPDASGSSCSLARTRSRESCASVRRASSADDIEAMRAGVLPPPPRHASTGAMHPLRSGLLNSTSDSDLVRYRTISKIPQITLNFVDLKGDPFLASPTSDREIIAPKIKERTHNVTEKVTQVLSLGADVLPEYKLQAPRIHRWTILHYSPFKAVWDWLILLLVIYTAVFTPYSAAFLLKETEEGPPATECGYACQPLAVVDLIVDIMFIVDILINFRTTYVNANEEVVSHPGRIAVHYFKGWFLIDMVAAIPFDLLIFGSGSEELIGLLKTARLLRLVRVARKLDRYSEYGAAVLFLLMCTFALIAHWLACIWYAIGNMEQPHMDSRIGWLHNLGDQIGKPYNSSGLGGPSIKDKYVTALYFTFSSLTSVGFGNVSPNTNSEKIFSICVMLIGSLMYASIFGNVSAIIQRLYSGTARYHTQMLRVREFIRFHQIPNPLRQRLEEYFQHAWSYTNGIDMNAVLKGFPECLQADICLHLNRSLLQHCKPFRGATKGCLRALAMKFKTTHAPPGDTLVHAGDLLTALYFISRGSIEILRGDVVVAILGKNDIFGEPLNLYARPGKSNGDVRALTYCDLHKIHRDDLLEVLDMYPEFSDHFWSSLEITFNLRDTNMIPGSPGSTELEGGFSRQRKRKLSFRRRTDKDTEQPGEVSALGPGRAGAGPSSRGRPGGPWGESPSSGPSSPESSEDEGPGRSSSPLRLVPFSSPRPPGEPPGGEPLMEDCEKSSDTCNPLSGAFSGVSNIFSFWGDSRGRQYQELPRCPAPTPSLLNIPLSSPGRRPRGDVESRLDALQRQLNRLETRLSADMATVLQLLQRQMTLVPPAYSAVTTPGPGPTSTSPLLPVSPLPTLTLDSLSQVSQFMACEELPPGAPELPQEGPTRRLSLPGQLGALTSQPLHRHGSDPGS
Experiment: primary screen, population patch clamp on CHO cells stably expressing hERG; higher = less effect of the substance
Among all 310,000 compounds or so, about 14,000 (4.5%) showed an effect of 50% or more. Effects have a minus sign here. The sample holds strong results, similar compounds and a random draw of the others, so the mix is not that of the screen.
MEASURED_METRIC: hERG current change (%, negative = inhibition) at 10uM (%)
Answer format: numeric, % implied, no suffix.

// solved cases for hERG current change (%, negative = inhibition) at 10uM follow
Query: Return hERG current change (%, negative = inhibition) at 10uM measured with human ether-à-go-go-related gene (hERG) potassium channel (human, UniProt Q12809) given this compound: `CN1CCN(CCCC(=O)c2ccc(F)cc2)CC1.Cl`
Response: -14.5

Query: // fetch human ether-à-go-go-related gene (hERG) potassium channel (human, UniProt Q12809) hERG current change (%, negative = inhibition) at 10uM for COC(=O)C(c1ccccc1)N1CCCCCC1.Cl (stereo not shown)
Response: 10.8

Query: Provide the documented hERG current change (%, negative = inhibition) at 10uM with human ether-à-go-go-related gene (hERG) potassium channel (human, UniProt Q12809) as the system for `S=C(NCc1cccnc1)Nc1cccc(Cl)c1`
Response: -9.78

Query: Request: hERG current change (%, negative = inhibition) at 10uM, test system human ether-à-go-go-related gene (hERG) potassium channel (human, UniProt Q12809), entry `Cc1ccc(C(=O)NC2CCN(C(=O)Nc3ccc(F)cc3)CC2)cc1`
Response: 1.24

Query: Query the reported hERG current change (%, negative = inhibition) at 10uM for human ether-à-go-go-related gene (hERG) potassium channel (human, UniProt Q12809); item: `C[C@]12CCC(=O)C=C1CC[C@@H]1[C@@H]2CC[C@@]2(C)[C@H]1CC[C@]2(O)C(=O)CO`
Response: 9.17

Next:
Query: State its hERG current change (%, negative = inhibition) at 10uM on human ether-à-go-go-related gene (hERG) potassium channel (human, UniProt Q12809): COC/C=C/C1=CC2=CC(=O)C(C)(OC(=O)c3cnc4ccccc4n3)C(=O)C2=CN1c1ccc(OC)cc1 (stereo not shown)
Response: -4.95

Query: Observed hERG current change (%, negative = inhibition) at 10uM on human ether-à-go-go-related gene (hERG) potassium channel (human, UniProt Q12809) for `Cl.O=C(CCCN1CCc2[nH]c3ccc(F)cc3c2C1)c1ccc(F)cc1` , please.
Response: -70.4

----------
Target: human ether-à-go-go-related gene (hERG) potassium channel (human, UniProt Q12809);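 further: peak tail current of the secondary pulse compared with the same well before compound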
Test: primary screen, population patch clamp on CHO cells stably expressing hERG; higher = less effect of the substance
Protocol: Briefly, Chinese hamster ovary (CHO) cells stably expressing the hERG channel were dislodged from tissue culture flasks and dispensed into PPC plates. […] During the recording, background leak currents were estimated by a 100 ms step to -80 mV from an initial holding potential of -70 mV and subtracted from the subsequent current measurement. The campaign was conducted in two phases using slight differences in recording protocol. […]
The campaign covered roughly 310,000 compounds. About 14,000 (4.5%) showed an effect of 50% or more. Effects have a minus sign here. Shown is part of a subset that was picked to be rich in strong results.
MEASURED_METRIC: hERG current change (%, negative = inhibition) at 10uM (%)
Your answer is read as %, so omit the unit and give the number.

Here's what some known entries look like.
Query: Sample `Cc1ccc(-c2cc(C(=O)O)c3cc(Br)ccc3n2)s1` — what was its hERG current change (%, negative = inhibition) at 10uM?
Response: 16.7

Query: What value of hERG current change (%, negative = inhibition) at 10uM has been reported for the following compound? `CCOc1ccccc1C(=O)NC1CCN(CC(=O)Nc2cc(OC)ccc2OC)CC1`
Response: -77.2

Query: Which hERG current change (%, negative = inhibition) at 10uM is reported for this compound? `CCOc1ccccc1N1CCN(CC(=O)Nc2ccccc2C(=O)NC2CC2)CC1`
Response: -70.2

Query: Form field: reported hERG current change (%, negative = inhibition) at 10uM of `CSCC[C@H](NC(=O)Nc1cccc(C(F)(F)F)c1)C(=O)O`
Response: -0.0702

Query: Suppose we examine the compound `CCOC(=O)N1CCN(C(=O)CSc2nnc(CNC(=O)c3ccccc3F)o2)CC1` ; what hERG current change (%, negative = inhibition) at 10uM value has been reported?
Response: 6.37

Query: Entry `COc1ccc(/C=N/NC(=O)Cn2cnc3ccccc3c2=O)cc1OC` has what hERG current change (%, negative = inhibition) at 10uM?
Response: -6.77

Query: Data request, read-out hERG current change (%, negative = inhibition) at 10uM, for O=C(NCc1cccnc1)C1CCC(CNS(=O)(=O)c2cccc3nsnc23)CC1 (stereo not drawn)
Response: -9.63

Query: Which hERG current change (%, negative = inhibition) at 10uM reading was recorded for the compound `Cc1ccccc1N1CCN(CC(=O)Nc2ccccc2C(=O)NC2CC2)CC1` ?
Response: -62.4

Query: What value of measured hERG current change (%, negative = inhibition) at 10uM is listed for `CN(C)S(=O)(=O)c1cccc(NC(=O)c2sccc2-c2ccccc2)c1` ?
Response: -26.1

Query: What measured hERG current change (%, negative = inhibition) at 10uM goes with `CCC/C=N/Nc1nnc(Cc2ccc(OC)c(OC)c2)c(=O)[nH]1` ?
Response: 27.2

Continuing:
Query: Query (compound): `Cc1cccc(C)c1NC(=S)N1CCOCC1` ; field requested: hERG current change (%, negative = inhibition) at 10uM
Response: 9.99

Query: Sample `Cc1ccc(S(=O)(=O)N2CCOCC2)cc1C(=O)Nc1cccc(S(=O)(=O)N2CCCC2)c1` — what was its hERG current change (%, negative = inhibition) at 10uM?
Response: -38.3

----------
Biological target: human ether-à-go-go-related gene (hERG) potassium channel (human);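 further: peak tail current of the secondary pulse compared with the same well before compound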
Assay: primary screen, population patch clamp on CHO cells stably expressing hERG; higher = less effect of the substance
Hit rate of the full screen: of about 310,000 compounds, about 14,000 (4.5%) showed an effect of 50% or more. The effect is printed as a negative number. The sample holds strong results, similar compounds and a random draw of the others, so the mix is not that of the screen.
# hERG current change (%, negative = inhibition) at 10uM per entry
State just the number; it will be interpreted in %.

Use these answered entries as a reference point.
Query: What does the record list as hERG current change (%, negative = inhibition) at 10uM for `CN1N=C(C(=O)N2CCN(c3ccc([N+](=O)[O-])cc3)CC2)CCC1=O` ?
Response: -73

Query: Return reported hERG current change (%, negative = inhibition) at 10uM; argument: `COc1ccc2[nH]cc(C(=O)CN3CCCCC3)c2c1`
Response: -8.72

Others:
Query: Param item = COc1ccc(N=C2SC(C(=O)O)CC(=O)N2C)cc1 (stereo not drawn) ; retrieve measured hERG current change (%, negative = inhibition) at 10uM.
Response: 1.4

Query: What value of hERG current change (%, negative = inhibition) at 10uM has been recorded for this entry: COc1ccc(N=C2SC(C(=O)N3CCN(c4ccccc4)CC3)CC(=O)N2C)cc1 (stereo not drawn)
Response: -13

Query: Endpoint output: hERG current change (%, negative = inhibition) at 10uM of `CCOCC(=O)N1CCN(c2ccc(F)cc2)CC1` . Value?
Response: -15.9

Query: So what does the record say about hERG current change (%, negative = inhibition) at 10uM for CCOC(=O)C1CCN(C(C)C(=O)c2c[nH]c3ccccc23)CC1 (stereo not drawn) ?
Response: -42.2

----------
Entries annotated with measured hERG current change (%, negative = inhibition) at 10uM
Molecular target: human ether-à-go-go-related gene (hERG) potassium channel (human, UniProt Q12809);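 further: peak tail current of the secondary pulse compared with the same well before compound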
Test: primary screen, population patch clamp on CHO cells stably expressing hERG; higher = less effect of the substance
Out of some 310,000 compounds screened, about 14,000 (4.5%) showed an effect of 50% or more. The effect is printed as a negative number. The sample as a whole holds a higher share of strong results than the screen did.
Kindly provide the numeric value in % only, without the unit symbol.

Examples with their reported hERG current change (%, negative = inhibition) at 10uM follow.
Query: Recall the recorded hERG current change (%, negative = inhibition) at 10uM for O=C(c1ccc(OC2CCN(CCc3ccccc3)CC2)cc1)N1CCCC(O)C1 (stereo not drawn) with human ether-à-go-go-related gene (hERG) potassium channel (human, UniProt Q12809) and state it.
Response: -2.05

Query: Kindly state the measured hERG current change (%, negative = inhibition) at 10uM obtained for `CCNc1nc(NCC)nc(N/N=C/c2ccc(Br)cc2)n1` with human ether-à-go-go-related gene (hERG) potassium channel (human, UniProt Q12809).
Response: -74.6

Query: Lookup: hERG current change (%, negative = inhibition) at 10uM / human ether-à-go-go-related gene (hERG) potassium channel (human, UniProt Q12809) / `O=C(CN1CCOCC1)Nc1c(C(=O)C2CC2)oc2ccccc12`
Response: -6.8

Query: Hi! What's the reported hERG current change (%, negative = inhibition) at 10uM for CCC(C)CCN1C(Nc2ccccc2)=NC[C@@H]1Cc1ccccc1 (stereo partly drawn) on human ether-à-go-go-related gene (hERG) potassium channel (human, UniProt Q12809)?
Response: -59.6

Query: Give hERG current change (%, negative = inhibition) at 10uM (human ether-à-go-go-related gene (hERG) potassium channel (human, UniProt Q12809)) of the following compound: Cc1cccc(C2Nc3ccccc3C(=O)N2c2ccccc2)n1 (stereo not drawn)
Response: 4.41

Shift focus to the following entry.
Query: Param readout= hERG current change (%, negative = inhibition) at 10uM; system= human ether-à-go-go-related gene (hERG) potassium channel (human, UniProt Q12809); entry= `N#Cc1ccccc1/C=N/Nc1nc(-c2ccccc2)c2cc(Br)ccc2n1` ; returns value.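 Further: peak tail current of the secondary pulse compared with the same well before compound.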
Response: -67.4

These entries and their values trace back to paper PMC4336329.
